# System: Target C mRNA
# protocol summary: Splicing RT-qPCR gene panel, Target C canonical junction (CJ) mRNA
# Assay type: cell-based
# stated conditions: Homo sapiens; Table 8; larger gene panel, decrease in CJ mRNA levels
Where a name gives a salt, the structure may show the parent alone.
reported property: IC50

Record excerpt, results attached:
compound: Cn1cc2c(F)cc(-n3cc4sc(C5CCNCC5)cc4n3)cc2n1
result: > 10000 nM

compound: Cc1cn2nc(-n3cc4sc(N5CCC(NC(C)(C)C)C5)cc4n3)cc(C)c2n1 (stereo not shown)
result: > 10000 nM

compound: Cc1c(O)c(-c2nc3cn(C4CCNCC4)nc3s2)cc2cn(C)nc12
result: < 100 nM

Batch of 5 compounds: report IC50 for each.
1. COc1c(-c2cc3cn(C4CCNCC4)nc3s2)nn2cc(C)nc(C)c12
2. COc1c(-c2cc3cn(C4CCNCC4)nc3s2)cc2c[nH]nc2c1C
3. CN(c1cc2sc(-c3ccc(-c4cn[nH]c4)cc3O)nc2s1)[C@@H]1C[C@H]2CC[C@@H](C1)N2
4. CN1CC2(C1)CN(c1cc3sc(-c4cc(F)c5nn(C)cc5c4)nc3s1)C2
5. Cc1cn2nc(-c3cc4sc(C5CCNCC5)nc4s3)cc(C)c2n1

1. > 10000 nM
2. > 10000 nM
3. > 10000 nM
4. 100 to 1000 nM
5. 1000 to 10000 nM

Batch of 7 compounds: report IC50 for each.
1. Cn1cc2cc(-c3cc4cn(C5CCNCC5)nc4s3)c(F)cc2n1
2. Cn1cc2cc(-c3cc4sc(C5CCNCC5)nc4s3)cc(F)c2n1
3. Cc1cn2cc(-n3cc4sc(C5CCNCC5)cc4n3)nc2c(C)n1
4. Cc1cn2cc(-c3nc4sc(C5CCNCC5)cc4s3)cc(C)c2n1 [Compound 140, hydrochloride]
5. Cn1cc2cc(-c3nc4sc(N5CCNCC5)cc4s3)cc(F)c2n1
6. CCN1CCC(n2cc3cc(-c4cc(F)c5nn(C)cc5c4)sc3n2)CC1
7. Cc1c(O)c(-c2cc3cn(C4CCNCC4)nc3s2)cc2cn(C)nc12

["100 to 1000 nM", "100 to 1000 nM", "> 10000 nM", "100 to 1000 nM", "100 to 1000 nM", "100 to 1000 nM", "> 10000 nM"]

Could you tell me which IC50 is on file for Cn1cc2cc(-c3nc4sc(N5CCC56CCCNC6)cc4s3)cc(F)c2n1 (stereo not shown) ?
1000 to 10000 nM
